Where do the numbers come from? From patent US20080011191A1.

assay: Xenon light fastness test of a recorded image; assay type: physicochemical; settings: xenon weatherometer Ci4000, 50 hours, 0.36 W/m^2, 2 mm glass plate and air layer, printed glossy paper and plain paper
Readout Type: Light fastness (color difference ΔE before and after the test, 3 levels)

[[record]]
smiles_record = "Cc1c(C#N)c(NCCS(=O)(=O)O)nc(NCCS(=O)(=O)O)c1N=Nc1nc2ccccc2s1"
observed = "∘ (ΔE≦10)"

[[record]]
smiles_record = "Cc1c(C#N)c(NCCS(=O)(=O)O)nc(NCCS(=O)(=O)O)c1N=Nc1nc2ccc(S(C)(=O)=O)cc2s1"
observed = "∘ (ΔE≦10)"

[[record]]
smiles_record = "Cc1c(C#N)c(NCCS(=O)(=O)O)nc(NCCS(=O)(=O)O)c1N=Nc1nc2ccc(S(=O)(=O)O)cc2s1"
observed = "∘ (ΔE≦10)"

[[record]]
smiles_record = "COc1ccc2nc(N=Nc3c(NCCS(=O)(=O)O)nc(NCCS(=O)(=O)O)c(C#N)c3C)sc2c1"
observed = "∘ (ΔE≦10)"

[[record]]
smiles_record = "Cc1c(C#N)c(NCCS(=O)(=O)O)nc(NCCS(=O)(=O)O)c1/N=N/c1snc2ccc(S(=O)(=O)O)cc12"
observed = "∘ (ΔE≦10)"

[[record]]
smiles_record = "Cc1c(C#N)c(NCCS(=O)(=O)O)nc(NCCS(=O)(=O)O)c1N=Nc1nc2ccc(C(=O)O)cc2s1"
observed = "∘ (ΔE≦10)"

